For each of the compounds below, state its IC50.
Your answer should be a plain number; it is taken to be in nM.

Entry CC1=C(C(=O)c2ccccc2)N2C(=O)[C@H](Cl)[C@H]2S(=O)(=O)C12CC2(c1ccccc1)c1ccccc1 (stereo partly shown) [Compd 4] : IC50 on human leukocyte elastase (HLE) (Homo sapiens, UniProt P08246) = 8.9

Entry CCC(=O)C1=C(C)C2(CC2(c2ccccc2)c2ccccc2)S(=O)(=O)[C@@H]2[C@@H](OC)C(=O)N12 (stereo partly shown) [Compd 2] : IC50 on human leukocyte elastase (HLE) (Homo sapiens, UniProt P08246) = 10.3

Tested on human leukocyte elastase (HLE) (Homo sapiens, UniProt P08246), the item CO[C@H]1C(=O)N2C(C(=O)C(C)(C)C)=C(C)C3(CC3(c3ccccc3)c3ccccc3)S(=O)(=O)[C@H]12 (stereo partly shown) [Compd 6] showed IC50 equal to 12

Response field IC50 (human leukocyte elastase (HLE) (Homo sapiens, UniProt P08246)) for item CC1=C(C(=O)C(C)(C)C)N2C(=O)[C@H](Cl)[C@H]2S(=O)(=O)C12CC2(c1ccccc1)c1ccccc1 (stereo partly shown) [Compd 5] : 6.3
